Biological target: T1, biotin-labeled human CD137 fused to human IgG1 Fc fragment (human, biotin-labeled)
T1 construct: also called human CD137-Fc; biotin-human CD137-Fc
T1 sequence (chain, as listed by the source limits assumed): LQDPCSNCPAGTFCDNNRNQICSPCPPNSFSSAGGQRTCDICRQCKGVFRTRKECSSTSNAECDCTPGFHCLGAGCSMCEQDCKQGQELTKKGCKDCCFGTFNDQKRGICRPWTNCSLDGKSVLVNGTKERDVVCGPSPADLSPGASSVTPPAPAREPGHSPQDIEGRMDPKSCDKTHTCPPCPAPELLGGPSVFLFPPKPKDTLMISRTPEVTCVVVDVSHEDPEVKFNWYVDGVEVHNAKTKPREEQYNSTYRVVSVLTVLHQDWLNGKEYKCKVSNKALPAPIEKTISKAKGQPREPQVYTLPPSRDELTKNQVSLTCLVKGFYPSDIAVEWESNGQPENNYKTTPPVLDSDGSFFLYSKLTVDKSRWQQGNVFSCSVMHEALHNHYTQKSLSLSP
Experiment: bead ELISA, IgG on biotin-human CD137-Fc; decrease with free CD3 epsilon 62.5 pmol against free Fc 62.5 pmol
measure name: Signal decrease (%)

- dBBDu189/L119 (antibody, V domains shown, Purified IgG; Fab genes of the panning output converted into IgG format) VH: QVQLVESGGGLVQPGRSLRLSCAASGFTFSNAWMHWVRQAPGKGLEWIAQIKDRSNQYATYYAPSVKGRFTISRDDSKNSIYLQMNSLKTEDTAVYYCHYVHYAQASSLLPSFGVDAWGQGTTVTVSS VL: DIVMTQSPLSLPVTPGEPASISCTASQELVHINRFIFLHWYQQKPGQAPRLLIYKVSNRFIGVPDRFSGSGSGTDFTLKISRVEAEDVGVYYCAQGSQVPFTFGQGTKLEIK: 76.9
- dBBDu186/L108 (antibody, V domains shown, Purified IgG; Fab genes of the panning output converted into IgG format) VH: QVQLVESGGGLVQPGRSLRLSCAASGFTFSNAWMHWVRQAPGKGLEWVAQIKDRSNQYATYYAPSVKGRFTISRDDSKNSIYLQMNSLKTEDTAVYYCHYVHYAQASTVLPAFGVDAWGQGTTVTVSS VL: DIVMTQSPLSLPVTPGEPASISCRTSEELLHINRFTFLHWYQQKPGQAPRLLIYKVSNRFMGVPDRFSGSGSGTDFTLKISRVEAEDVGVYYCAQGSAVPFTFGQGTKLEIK: 39.2
- dBBDu186/L098 (antibody, V domains shown, Purified IgG; Fab genes of the panning output converted into IgG format) VH: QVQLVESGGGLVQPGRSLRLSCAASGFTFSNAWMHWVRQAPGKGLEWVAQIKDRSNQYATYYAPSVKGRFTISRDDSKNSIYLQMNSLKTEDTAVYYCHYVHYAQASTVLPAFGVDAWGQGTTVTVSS VL: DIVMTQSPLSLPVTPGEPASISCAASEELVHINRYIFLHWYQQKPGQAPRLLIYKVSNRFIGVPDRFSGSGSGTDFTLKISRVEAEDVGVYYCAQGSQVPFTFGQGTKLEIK: 86.2
